tested on: 354836-022-R-J1-PDC multicell spheroid viability; experiment: Anticancer human tumor 354836-022-R-J1-PDC patient-derived head and neck squamous cell carcinoma cell line growth inhibition [PI3K]; settings: second compound 0.01 µM; first compound 3.16 µM; hits give low values
viability, T/C strictly under 10% means T; at 10% or over means F.

Consider the worked cases shown below.
{"columns": ["molecule", "categoryLabel"],
 "data": [
  ["Cn1nccc1Nc1nccc(-c2ccn(C(CO)c3ccc(Cl)c(F)c3)c(=O)c2)n1 (stereo unspecified) + COc1c(OCCCN2CCOCC2)ccc2c3n(c(=NC(=O)c4cnc(N)nc4)nc12)CCN3", "F"],
  ["CC1(C)CCC(CN2CCN(c3ccc(C(=O)NS(=O)(=O)c4ccc(NCC5CCOCC5)c([N+](=O)[O-])c4)c(Oc4cnc5[nH]ccc5c4)c3)CC2)=C(c2ccc(Cl)cc2)C1 + CC(Nc1ccc2c(c1)OCCn1cc(N3C(=O)OCC3C(F)F)nc1-2)C(N)=O", "F"],
  ["Cn1ncc(Cl)c1-c1cc(C(=O)NC(CN)Cc2cccc(F)c2)sc1Cl (stereo unspecified) + COc1c(OCCCN2CCOCC2)ccc2c3n(c(=NC(=O)c4cnc(N)nc4)nc12)CCN3", "T"],
  ["CC1(C)CCC(CN2CCN(c3ccc(C(=O)NS(=O)(=O)c4ccc(NCC5CCOCC5)c([N+](=O)[O-])c4)c(Oc4cnc5[nH]ccc5c4)c3)CC2)=C(c2ccc(Cl)cc2)C1 + COc1c(OCCCN2CCOCC2)ccc2c3n(c(=NC(=O)c4cnc(N)nc4)nc12)CCN3", "F"]
]}

Exercise: For this molecule, is viability, T/C lower than 10%? CNC(=O)c1ccc(N2C(=S)N(c3ccc(C#N)c(C(F)(F)F)c3)C(=O)C2(C)C)cc1F + CC(Nc1ccc2c(c1)OCCn1cc(N3C(=O)OCC3C(F)F)nc1-2)C(N)=O
Solution: F

###

Tested on: 354836-022-R-J1-PDC multicell spheroid viability
Test: Anticancer human tumor 354836-022-R-J1-PDC cell line growth inhibition [PI3K];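 note: spheroids exposed to agents for seven days before the viability read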
Settings: second compound 0.1 µM; first compound 0.0949 µM; hits give low values
Excerpt: Combinatorial screen of targeted agents with the PI3K inhibitors inavolisib, alpelisib, duvelisib, and copanlisib in multi-cell type tumor spheroids A high-throughput screen of multi-cell type tumor spheroids was designed to identify active combinations of targeted small molecules and PI3K pathway inhibitors. […] Compounds. […] If the clinical Cmax for an agent had not been determined, the highest concentration tested was 10 microM. […]
In this section we review reported viability, T/C values for a set of compounds.
Reply numerically in %, unit not repeated.

Worked examples, 2 compounds total:
{"columns": ["compound", "viability, T/C [%]"],
 "data": [
  ["Cn1cnc2c(F)c(Nc3ccc(Br)cc3Cl)c(C(=O)NOCCO)cc21 + Cc1nc(NC(=O)N2CCCC2C(N)=O)sc1-c1ccnc(C(C)(C)C(F)(F)F)c1", 82.9],
  ["Cn1cnc2c(F)c(Nc3ccc(Br)cc3Cl)c(C(=O)NOCCO)cc21 + CC(Nc1ccc2c(c1)OCCn1cc(N3C(=O)OCC3C(F)F)nc1-2)C(N)=O", 84.2]
]}

Exercise: # returns recorded viability, T/C (system: 354836-022-R-J1-PDC multicell spheroid viability) for Cn1cnc2c(F)c(Nc3ccc(Br)cc3Cl)c(C(=O)NOCCO)cc21 + CC(Nc1ncnc2nc[nH]c12)c1cc2cccc(Cl)c2c(=O)n1-c1ccccc1
Solution: 70.3

Exercise: Record: Cn1cnc2c(F)c(Nc3ccc(Br)cc3Cl)c(C(=O)NOCCO)cc21 + COc1c(OCCCN2CCOCC2)ccc2c3n(c(=NC(=O)c4cnc(N)nc4)nc12)CCN3
Solution: 38.3

###

tested on: 354836-022-R-J1-PDC multicell spheroid viability; test: Anticancer human tumor 354836-022-R-J1-PDC cell line growth inhibition [PI3K]; conditions: second compound 10 µM; first compound 0.1 µM; hits give low values;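 note: spheroids exposed to agents for seven days before the viability read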
measurementType: viability, T/C

Worked examples, 2 compounds total:
{"columns": ["compound", "measurementType", "measValue"],
 "data": [
  ["CCCS(=O)(=O)Nc1ccc(F)c(C(=O)c2c[nH]c3ncc(-c4ccc(Cl)cc4)cc23)c1F + Cc1nc(NC(=O)N2CCCC2C(N)=O)sc1-c1ccnc(C(C)(C)C(F)(F)F)c1", "viability, T/C", "35.3%"],
  ["CCN1CCN(Cc2ccc(Nc3ncc(F)c(-c4cc(F)c5nc(C)n(C(C)C)c5c4)n3)nc2)CC1 + CC(Nc1ncnc2nc[nH]c12)c1cc2cccc(Cl)c2c(=O)n1-c1ccccc1", "viability, T/C", "86.4%"]
]}

// moving on: another record for viability, T/C
Exercise: // viability, T/C lookup, key: CNC(=O)c1ccc(N2C(=S)N(c3ccc(C#N)c(C(F)(F)F)c3)C(=O)C2(C)C)cc1F + CC(Nc1ncnc2nc[nH]c12)c1cc2cccc(Cl)c2c(=O)n1-c1ccccc1
Solution: 86.5%

###

In this section we review reported viability, T/C values for a set of compounds.
Tested on: 354836-022-R-J1-PDC multicell spheroid viability
Experiment: Anticancer human tumor 354836-022-R-J1-PDC cell line growth inhibition [PI3K];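 note: spheroids exposed to agents for seven days before the viability read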
Details: second compound 0.0316 µM; first compound 0.3 µM; hits give low values
Source text: Combinatorial screen of targeted agents with the PI3K inhibitors inavolisib, alpelisib, duvelisib, and copanlisib in multi-cell type tumor spheroids A high-throughput screen of multi-cell type tumor spheroids was designed to identify active combinations of targeted small molecules and PI3K pathway inhibitors. […] Compounds. […] If the clinical Cmax for an agent had not been determined, the highest concentration tested was 10 microM. […]
Reply numerically in %, unit not repeated.

Exercise: // viability, T/C lookup, key: Cn1cnc2c(F)c(Nc3ccc(Br)cc3Cl)c(C(=O)NOCCO)cc21 + COc1c(OCCCN2CCOCC2)ccc2c3n(c(=NC(=O)c4cnc(N)nc4)nc12)CCN3
Solution: 66.9

Exercise: Record: Cn1cnc2c(F)c(Nc3ccc(Br)cc3Cl)c(C(=O)NOCCO)cc21 + CC(Nc1ncnc2nc[nH]c12)c1cc2cccc(Cl)c2c(=O)n1-c1ccccc1
Solution: 71.9

Exercise: Record: Cn1cnc2c(F)c(Nc3ccc(Br)cc3Cl)c(C(=O)NOCCO)cc21 + Cc1nc(NC(=O)N2CCCC2C(N)=O)sc1-c1ccnc(C(C)(C)C(F)(F)F)c1
Solution: 64.6

Exercise: Record: Cn1cnc2c(F)c(Nc3ccc(Br)cc3Cl)c(C(=O)NOCCO)cc21 + CC(Nc1ccc2c(c1)OCCn1cc(N3C(=O)OCC3C(F)F)nc1-2)C(N)=O
Solution: 83.5

###

Test system: 354836-022-R-J1-PDC multicell spheroid viability
Assay: Anticancer human tumor 354836-022-R-J1-PDC cell line growth inhibition [PI3K];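 note: spheroids exposed to agents for seven days before the viability read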
Conditions: second compound 10 µM; first compound 0.0316 µM; hits give low values
Description: Combinatorial screen of targeted agents with the PI3K inhibitors inavolisib, alpelisib, duvelisib, and copanlisib in multi-cell type tumor spheroids A high-throughput screen of multi-cell type tumor spheroids was designed to identify active combinations of targeted small molecules and PI3K pathway inhibitors. […] Compounds. […] If the clinical Cmax for an agent had not been determined, the highest concentration tested was 10 microM. […]
In this section we review reported viability, T/C values for a set of compounds.
Reply numerically in %, unit not repeated.

Exercise: # returns recorded viability, T/C (system: 354836-022-R-J1-PDC multicell spheroid viability) for C[C@@H](NC(=O)c1ncnc(N)c1Cl)c1ncc(C(=O)Nc2cc(C(F)(F)F)c(Cl)cn2)s1 + Cc1nc(NC(=O)N2CCCC2C(N)=O)sc1-c1ccnc(C(C)(C)C(F)(F)F)c1
Solution: 32.1

Exercise: Record: Cn1ncc(Cl)c1-c1cc(C(=O)NC(CN)Cc2cccc(F)c2)sc1Cl (stereo not given) + CC(Nc1ncnc2nc[nH]c12)c1cc2cccc(Cl)c2c(=O)n1-c1ccccc1
Solution: 70.8

###

system: 354836-022-R-J1-PDC multicell spheroid viability; assay: Anticancer human tumor 354836-022-R-J1-PDC cell line growth inhibition [PI3K]; conditions: second compound 0.316 µM; first compound 0.1 µM; hits give low values;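 note: spheroids exposed to agents for seven days before the viability read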
In this section we review reported viability, T/C values for a set of compounds.
Reply numerically in %, unit not repeated.

Worked examples, 2 compounds total:
{"columns": ["compound", "measValue"],
 "data": [
  ["CC(Cn1ccc(-c2ccc(C#N)c(Cl)c2)n1)NC(=O)c1cc(C(C)O)[nH]n1 (stereo not drawn) + CC(Nc1ccc2c(c1)OCCn1cc(N3C(=O)OCC3C(F)F)nc1-2)C(N)=O", 67.5],
  ["CC1(C)CCC(CN2CCN(c3ccc(C(=O)NS(=O)(=O)c4ccc(NCC5CCOCC5)c([N+](=O)[O-])c4)c(Oc4cnc5[nH]ccc5c4)c3)CC2)=C(c2ccc(Cl)cc2)C1 + COc1c(OCCCN2CCOCC2)ccc2c3n(c(=NC(=O)c4cnc(N)nc4)nc12)CCN3", 12.5]
]}

Exercise: // viability, T/C lookup, key: CNC(=O)c1ccc(N2C(=S)N(c3ccc(C#N)c(C(F)(F)F)c3)C(=O)C2(C)C)cc1F + CC(Nc1ncnc2nc[nH]c12)c1cc2cccc(Cl)c2c(=O)n1-c1ccccc1
Solution: 97.8

Attribution: PubChem BioAssay AID1963981
